- target under test: Platelet-derived growth factor receptor (Mus musculus, UniProt P05622+P26618)
- assay notes: Inhibitory concentration of compound against mouse Platelet-derived growth factor receptor
Hi there, I'd appreciate the recorded pIC50 for every entry that follows.
The scale used: pIC50 is minus the common logarithm of the concentration in molar units.

Ask: Read off the recorded pIC50 for "CN1CCN(CCCNc2ncc3cc(-c4c(Cl)cccc4Cl)c(=O)n(C)c3n2)CC1"
Reply: 5.57

Ask: Read off the recorded pIC50 for "COc1cc(OC)cc(-c2cc3cnc(N)nc3n(C)c2=O)c1"
Reply: 4.37

Ask: Read off the recorded pIC50 for "Cn1c(=O)c(-c2c(Cl)cccc2Cl)cc2cnc(Nc3ccc(CC(=O)O)cc3)nc21"
Reply: 7.15

Ask: Read off the recorded pIC50 for "CN1CCN(c2ccc(Nc3ncc4cc(-c5c(Cl)cccc5Cl)c(=O)n(C)c4n3)cc2)CC1"
Reply: 6.94
